# Target Entity: MALT1 (Homo sapiens (Human))
# Procedure Details: MALT1 enzymatic activity inhibition (fluorescence, Ac-LRSR-AMC substrate)
# Type: biochemical
# Test Conditions: recombinant MALT1 1.5 ng/μl, Ac-LRSR-AMC 1 μM
Outcome Measure: EC50

[in] Need EC50 of O=C1CCC(N2Cc3cc(N4CCN(CCCCc5nc(-c6ncc(NC(=O)Nc7cnc8ccnn8c7C7CC7)cc6Cl)no5)CC4)ccc3C2=O)C(=O)N1 (centres unmarked) , thanks.
[out] ≤ 0.2 µM

[in] How about this molecule: Cc1c(NC(=O)Nc2cnc(-c3noc(CCCCCC(=O)N4CCN(c5ccc6c(c5)CN(C5CCC(=O)NC5=O)C6=O)CC4)n3)c(Cl)c2)cnc2ccnn12 (centres unmarked)
[out] 0.2 to 0.5 µM

[in] Try Cc1cc(NC(=O)Nc2cnc3ccnn3c2C2CCCC2)cnc1-c1noc(CCCCCN2CCN(c3ccc4c(c3)CN(C3CCC(=O)N(COC(=O)C(C)(C)C)C3=O)C4=O)CC2)n1 (centres unmarked) next.
[out] ≤ 0.2 µM

[in] How about O=C1CCC(N2Cc3cc(N4CCN(CCCCCn5cc(NC(=O)Nc6cnc7ccnn7c6C6CCC6)c(C(F)(F)F)n5)CC4)ccc3C2=O)C(=O)N1 (centres unmarked) ?
[out] > 5 µM

[in] Param item: Cc1cc(NC(=O)Nc2cnc3ccnn3c2C2CCCC2)cnc1-c1noc(CCCCCC(=O)N2CCN(c3ccc4c(c3)CN(C3CCC(=O)N(COC(=O)C(C)(C)C)C3=O)C4=O)CC2)n1 (centres unmarked)
[out] ≤ 0.2 µM

---

Provide the reported EC50 of each item.
# Target Entity: MALT1 (Homo sapiens (Human), UniProt Q9UDY8)
# Sequence (Q9UDY8 whole entry): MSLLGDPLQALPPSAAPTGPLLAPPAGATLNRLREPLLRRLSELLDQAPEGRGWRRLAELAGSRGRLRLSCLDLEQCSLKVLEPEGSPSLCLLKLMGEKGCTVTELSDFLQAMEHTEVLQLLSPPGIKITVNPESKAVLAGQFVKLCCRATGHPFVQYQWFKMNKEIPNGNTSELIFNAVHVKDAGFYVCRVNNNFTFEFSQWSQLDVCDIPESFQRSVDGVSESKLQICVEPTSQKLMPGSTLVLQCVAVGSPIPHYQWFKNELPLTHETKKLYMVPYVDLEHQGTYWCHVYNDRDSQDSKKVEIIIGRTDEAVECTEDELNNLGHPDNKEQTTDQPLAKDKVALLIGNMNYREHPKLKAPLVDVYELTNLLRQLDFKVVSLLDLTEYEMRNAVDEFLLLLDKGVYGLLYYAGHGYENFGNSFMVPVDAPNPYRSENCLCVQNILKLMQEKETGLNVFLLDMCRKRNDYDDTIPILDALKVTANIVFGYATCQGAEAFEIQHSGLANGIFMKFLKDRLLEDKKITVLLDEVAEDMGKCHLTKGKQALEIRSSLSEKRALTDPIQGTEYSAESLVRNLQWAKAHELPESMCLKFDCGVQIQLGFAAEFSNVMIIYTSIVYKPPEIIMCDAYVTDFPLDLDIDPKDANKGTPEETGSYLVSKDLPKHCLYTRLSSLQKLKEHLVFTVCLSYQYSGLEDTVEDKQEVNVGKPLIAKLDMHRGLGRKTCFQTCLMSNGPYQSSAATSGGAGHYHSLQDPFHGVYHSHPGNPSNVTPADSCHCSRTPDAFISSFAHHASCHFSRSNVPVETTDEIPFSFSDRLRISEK
# Procedure Details: MALT1 enzymatic activity inhibition (fluorescence, Ac-LRSR-AMC substrate)
# Assay type: biochemical
# Test Conditions: recombinant MALT1 1.5 ng/μl, Ac-LRSR-AMC 1 μM

[in] Fill in the recorded EC50 for this compound, with MALT1 (Homo sapiens (Human), UniProt Q9UDY8) as test system: Cc1cc(NC(=O)Nc2cnc3ccnn3c2C2CCCO2)cnc1NCCOCCOCCOCCC(=O)N1CCN(c2ccc3c(c2)CN(C2CCC(=O)NC2=O)C3=O)CC1 (centres unmarked)
[out] > 5 µM

[in] Another: Cc1cc(NC(=O)Nc2cnc3ccnn3c2C2CCCO2)cnc1-c1noc(CCCN2CCN(c3ccc4c(c3)CN(C3CCC(=O)NC3=O)C4=O)CC2)n1 (centres unmarked)
[out] ≤ 0.2 µM

[in] Same question for Cc1cc(NC(=O)Nc2cnc3ccnn3c2C2CCCC2)cnc1-c1noc(CCCCCN2CCN(c3ccc4c(c3)CN(C3CCC(=O)N(C)C3=O)C4=O)CC2)n1 (centres unmarked) please.
[out] ≤ 0.2 µM

[in] Input CC(C)c1c(NC(=O)Nc2cnc(-c3noc(CCCCC(=O)N4CCN(c5ccc6c(c5)CN(C5CCC(=O)N(COC(=O)C(C)(C)C)C5=O)C6=O)CC4)n3)c(Cl)c2)cnc2ccnn12 (centres unmarked)
[out] ≤ 0.2 µM

[in] Next compound: O=C(CCOCCOCCN1CCN(c2ccc3c(c2)CN(C2CCC(=O)NC2=O)C3=O)CC1)NCCOc1ncc(Cl)cc1NC(=O)Nc1cnc2ccnn2c1C1CCOC1 (centres unmarked)
[out] 0.5 to 1 µM

[in] And what about the compound O=C1CCC(N2Cc3cc(N4CCN(CCCCCc5nc(-c6ncc(NC(=O)Nc7cnc8ccnn8c7C7CC7)cc6Cl)no5)CC4)ccc3C2=O)C(=O)N1 (centres unmarked) ?
[out] ≤ 0.2 µM

[in] Next compound: Cc1cc2ncc(NC(=O)Nc3cnc(-c4noc(CCCCCCN5CCN(c6ccc7c(c6)CN(C6CCC(=O)NC6=O)C7=O)CC5)n4)c(C)c3)c(C3CCCC3)n2n1 (centres unmarked)
[out] ≤ 0.2 µM

[in] Would you kindly repeat that for O=C1CCC(N2Cc3cc(N4CCN(CCCCc5nc(-c6ncc(NC(=O)Nc7cnc8ccnn8c7C7CCCC7)cc6Cl)no5)CC4)ccc3C2=O)C(=O)N1 (centres unmarked) ?
[out] ≤ 0.2 µM

[in] Param item: O=C1CCC(N2Cc3cc(N4CCN(C(=O)CCCCc5nc(-c6ncc(NC(=O)Nc7cnc8ccnn8c7C7CCCCC7)cc6Cl)no5)CC4)ccc3C2=O)C(=O)N1 (centres unmarked)
[out] ≤ 0.2 µM

[in] Same lookup for Cc1cc(NC(=O)Nc2cnc3ccnn3c2C2CCCCC2)cnc1-c1noc(CCCCCCN2CCN(c3ccc4c(c3)CN(C3CCC(=O)NC3=O)C4=O)CC2)n1 (centres unmarked) , please.
[out] ≤ 0.2 µM

[in] Subsequent entry: CCCCOP(=O)(OCCCC)OCN1C(=O)CCC(N2Cc3cc(N4CCN(C(=O)CCCCCc5nc(-c6ncc(NC(=O)Nc7cnc8ccnn8c7C7CCCC7)cc6Cl)no5)CC4)ccc3C2=O)C1=O (centres unmarked)
[out] > 5 µM
